# System: IGROV1 ovarian
# assayOverview: NCI tumour cell line growth inhibition, 48 h
readoutName: GI50

                                   compound      systemname  experimentalresult
0  COc1ccc2cc(C(=O)/C=C/c3ccc(N(C)C)cc3)ccc2c1  IGROV1 ovarian             47.8 µM
1  CN1CCC2(CC1)NC(=O)c1c(c3ccc(Cl)c(Cl)c3n1C)C2C#N (centres undefined)  IGROV1 ovarian             2.31 µM
2  CCCc1cc(=O)n2c(C(=O)Nc3cccc(C(=O)OCC)c3)c(C(=O)Nc3ccc(F)cc3)sc2n1  IGROV1 ovarian             24.8 µM
3  C[C@]12CC[C@@H]3c4cc(OC(F)F)c(OS(N)(=O)=O)cc4CC[C@H]3[C@@H]1CC[C@@H]2OS(N)(=O)=O  IGROV1 ovarian             1.88 µM
